As shown below, each of these molecules has a reported IC50 value.
# tested on: Melanin-concentrating hormone receptor 2 (Homo sapiens, UniProt Q969V1)
# Sequence (Q969V1 whole entry): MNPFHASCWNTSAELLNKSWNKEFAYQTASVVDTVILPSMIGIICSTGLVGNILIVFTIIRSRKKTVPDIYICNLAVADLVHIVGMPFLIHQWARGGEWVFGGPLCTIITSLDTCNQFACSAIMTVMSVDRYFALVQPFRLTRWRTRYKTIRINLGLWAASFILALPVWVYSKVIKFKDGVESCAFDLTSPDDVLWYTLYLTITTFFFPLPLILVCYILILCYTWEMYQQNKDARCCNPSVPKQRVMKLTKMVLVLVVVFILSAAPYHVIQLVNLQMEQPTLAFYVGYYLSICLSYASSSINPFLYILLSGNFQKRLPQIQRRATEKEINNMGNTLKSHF
# measurement protocol: Binding affinity against human Melanin-concentrating hormone receptor 2 stably transfected CHO cells was determined using [125I]MCH as radioligand
# Type: cell-based
State the answer as a number, implicitly in µM.

>>> reported_result("COc1cc(NC(=O)Nc2cccc(Nc3ccccc3)c2)ccc1C(=O)NCCCN1CCCCC1")
10
>>> reported_result("COc1cc(NC(=O)Nc2ccc(Oc3ccccc3)cc2)ccc1C(=O)NCCCN1CCCCC1")
10

Now let's try a different one.
IN: Which IC50 reading was recorded for the molecule CCN1CCCC1CNC(=O)c1ccc(NC(=O)Nc2ccc(Oc3ccccc3)cc2)cc1 (stereo unspecified) ?
OUT: 6.31

* * *

# measurement protocol: Inhibitory activity against 5-hydroxytryptamine 2A receptor
measure: pIC50
Scale for pIC50: -log10 of concentration given in mol/L; no unit attached.

>>> reported_result("COc1cc(NC(=O)Nc2cccc(Oc3ccccc3)c2)ccc1C(=O)NCCCN1CCOCC1")
6.17

Proceed to the following item.
IN: Entry under review: CCN(CC)CCNC(=O)c1ccc(NC(=O)Nc2ccc(OC(F)(F)F)cc2)cc1OC . Reported pIC50?
OUT: 5.89

* * *

# tested on: Melanin-concentrating hormone receptor 1 (Homo sapiens)
# measurement protocol: Binding affinity against human Melanin-concentrating hormone receptor 1 stably transfected CHO cells was determined using scintillation proximity assay (SPA)
# Format: cell-based
Reported IC50 values are given for each entry in this list.
Reply with just the number (in µM).

Example entries begin here.
>>> reported_result("CCN(CC)CCNC(=O)c1ccc(NC(=O)Nc2ccc(C(C)=O)cc2)cc1OC")
13
>>> reported_result("CCN(CC)CCNC(=O)c1ccc(NC(=O)Nc2ccc(C(F)(F)F)cc2)cc1OC")
0.05
>>> reported_result("CCN(CC)CCNC(=O)c1ccc(NC(=O)Nc2cc(OC)cc(OC)c2)cc1OC")
18
>>> reported_result("CCN(CC)CCNC(=O)c1ccc(NC(=O)Nc2cccc(SC)c2)cc1OC")
4.7

Proceed to the following item.
IN: Report IC50 for CCN(CC)CCNC(=O)c1ccc(NC(=O)Nc2ccc(Oc3ccccc3)cc2)cc1OC please.
OUT: 0.72

* * *

# tested on: Melanin-concentrating hormone receptor 1 (Homo sapiens, UniProt Q99705)
# Sequence (Q99705 whole entry): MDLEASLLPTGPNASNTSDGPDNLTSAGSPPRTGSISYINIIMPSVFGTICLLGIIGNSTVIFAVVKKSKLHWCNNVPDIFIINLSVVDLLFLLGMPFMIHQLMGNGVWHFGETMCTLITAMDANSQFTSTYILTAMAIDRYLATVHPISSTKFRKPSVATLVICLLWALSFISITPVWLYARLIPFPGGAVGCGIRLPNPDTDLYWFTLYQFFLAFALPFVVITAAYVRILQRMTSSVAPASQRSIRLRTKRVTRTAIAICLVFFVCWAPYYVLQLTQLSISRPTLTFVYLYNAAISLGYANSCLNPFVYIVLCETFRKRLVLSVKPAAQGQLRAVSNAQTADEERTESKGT
# measurement protocol: Binding affinity against human Melanin-concentrating hormone receptor 1 stably transfected CHO cells was determined using [125I]MCH as radioligand
# Format: cell-based
measure: IC50 (nM)
Numeric only. Scale: nM

>>> reported_result("CCN(CC)CCNC(=O)c1ccc(NC(=O)Nc2ccc(OC(F)(F)F)cc2)cc1OC")
50
>>> reported_result("CCN1CCCC1CNC(=O)c1ccc(NC(=O)Nc2ccc(Oc3ccccc3)cc2)cc1OC (stereo not drawn)")
530
>>> reported_result("COc1cc(NC(=O)Nc2cccc(Nc3ccccc3)c2)ccc1C(=O)NCCCN1CCCCC1")
8.1
>>> reported_result("CCN(CC)CCNC(=O)c1ccc(NC(=O)Nc2ccc(Oc3ccccc3)cc2)cc1OC")
140
>>> reported_result("COc1cc(NC(=O)Nc2ccc(Nc3ccccc3)cc2)ccc1C(=O)NCCCN1CCCCC1")
850
>>> reported_result("O=C(Nc1ccc(Oc2ccccc2)cc1)Nc1ccc(C(=O)NCCN2CCN(Cc3ccccc3)CC2)cc1")
140
>>> reported_result("CCN(CC)CCNC(=O)c1ccc(NC(=O)Nc2ccc(C(F)(F)F)cc2)cc1")
5.3
>>> reported_result("COc1cc(NC(=O)Nc2ccc(Oc3ccccc3)cc2)ccc1C(=O)NCCCN1CCCCC1")
50
>>> reported_result("CCN(CC)CCNC(=O)c1ccc(NC(=O)c2ccc(-c3ccccc3)cc2)cc1OC")
370
>>> reported_result("CCN(CC)CCNC(=O)c1ccc(-c2noc(-c3ccc(Oc4ccccc4)cc3)n2)cc1")
2450

IN: Could you share which IC50 value was measured for COc1cc(NC(=O)c2ccc(-c3ccccc3)cc2)ccc1C(=O)NCCCN(C)C ?
OUT: 640

IN: Given CCN1CCCC1CNC(=O)c1ccc(-c2noc(-c3ccc(Oc4ccccc4)cc3)n2)cc1 (stereo not drawn) , state its recorded IC50.
OUT: 1900
